- MEASUREMENT TARGET: T1, Oct6 DNA-binding domain (BD-Oct6) (Mus musculus (B6), UniProt P21952 317-416)
- T1 sequence: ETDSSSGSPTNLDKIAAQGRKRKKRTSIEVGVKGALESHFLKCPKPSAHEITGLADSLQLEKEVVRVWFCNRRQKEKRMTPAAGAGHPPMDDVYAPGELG
- ASSAY COMMENT: EMSA; 10% glycerol, 20 mM HEPES pH 7.8, 45 mM KCl, 10 mM NaCl, 1 mM EDTA, 1 mM DTT, 0.2 ug/uL BSA, 0.1% NP-40, 50 ng poly-dIdC; 20 ng each GST protein; room temperature 30 min (heterodimers 4 C); 6% PAGE 0.25x TBE
- CONDITION: protein: recombinant; tags: GST (N-terminal, pGEX-6P-1); label: 32P-dCTP fill-in of the 5' (dG)5 overhangs of both strands (Methods; control probes are given with GGG)
PROPERTY NAME: binding result

35 (dsDNA) DNA 1: GGGGGGTTTCTCTAATTAATAGACTTCATTGTTCAAAACTATTTTACATTTGTTCCCCC DNA 2: GGGGGAACAAATGTAAAATAGTTTTGAACAATGAAGTCTATTAATTAGAGAAACCCCCC = binds
62 (dsDNA) DNA 1: GGGGGTTTAAACAATTGTCCCATTCATTATATTGCAACACCCCC DNA 2: GGGGGTGTTGCAATATAATGAATGGGACAATTGTTTAAACCCCC = binds
16a (dsDNA) DNA 1: GGGGGGTGAACCCTTTCAGATTTAGTGACGTAGCTTCACAAAGTGATTAACCCCC DNA 2: GGGGGTTAATCACTTTGTGAAGCTACGTCACTAAATCTGAAAGGGTTCACCCCCC = binds
